Each entry below lists one item and its recorded IC50 value.
STUDY SYSTEM: T1, cloned human SRIF receptor SSTR2 (human, UniProt P30874 1-369)
T1 construct: whole, on cells; assayed as cryostat sections of membrane pellets of the transfected cells; also called hSSTR2
T1 sequence (P30874 whole entry): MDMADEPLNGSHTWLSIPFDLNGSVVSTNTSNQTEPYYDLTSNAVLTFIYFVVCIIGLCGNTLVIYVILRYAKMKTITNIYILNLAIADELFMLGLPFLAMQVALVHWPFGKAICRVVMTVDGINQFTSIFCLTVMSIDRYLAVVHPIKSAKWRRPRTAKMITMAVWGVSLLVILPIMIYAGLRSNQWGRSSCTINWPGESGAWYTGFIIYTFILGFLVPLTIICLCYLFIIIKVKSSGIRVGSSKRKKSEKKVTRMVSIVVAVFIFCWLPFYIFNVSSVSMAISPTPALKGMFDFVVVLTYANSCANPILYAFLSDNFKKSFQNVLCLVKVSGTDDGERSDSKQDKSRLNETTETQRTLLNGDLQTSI
ASSAY SUMMARY: radioligand displacement (125I-[Leu8,D-Trp22,Tyr25]SRIF-28), membrane pellet sections
Bridge positions count the residues as written; N and C are the ends. Square brackets hold non-standard residues; d marks the D form. * marks the point of attachment. Phe(4-CH2NH2) = NCc1ccc(C[C@H](N)C(=O)O)cc1; Phe(4-NH2) = Nc1ccc(C[C@H](N)C(=O)O)cc1; Carbamoyl = NC(=O)*
Output should be the measured figure followed by the unit it is expressed in.

Worked cases, answers included:
BINDER	EXPERIMENTAL VALUE
Carbamoyl-YCF[Phe(4-CH2NH2)]WKTFC-OH (disulfide 2-9, synthetic cyclic nonapeptide; also called Peptide No. 15A) [(cyclo)Cbm-Tyr-Cys-Phe-Amp-Trp-Lys-Thr-Phe-Cys-OH]	118 nM
H-CF[Phe(4-NH2)]WKTFC-OH (disulfide 1-8, synthetic cyclic octapeptide, free N-terminus and free acid C-terminus; also called Peptide No. 1) [des-AA^1,2,4,5,12,13[4Aph^7]-SRIF, (cyclo)H-Cys-Phe-4Aph-Trp-Lys-Thr-Phe-Cys-OH]	347 nM

Proceeding to the next binder to report its IC50.
Exercise: Fill in: IC50 of Carbamoyl-CF[Phe(4-NH2)][dW]KTYC-OH (disulfide 1-8, synthetic cyclic octapeptide; also called Peptide No. 10A) [(cyclo)Cbm-Cys-Phe-4Aph-D-Trp-Lys-Thr-Tyr-Cys-OH] is ___
Key: 227 nM
